Test: Binding affinity to batrachotoxinin-sensitive rat brain sodium channel
value.type: Ki (µM)
One number for each entry, in µM.

compound | Ki, µM
CN(CC(=O)N(C)[C@@H](CN1CCCC1)c1ccccc1)c1ccc(Cl)c(Cl)c1 | 2

Look at each compound and report its Ki.
1. CN(CC(=O)N1CCCC(c2ccccc2)C1CN1CCCC1)c1ccc(Cl)c(Cl)c1 (racemic)
2. CN(CC(=O)N(C)C(CN1CCCC1)c1ccc(-c2ccccc2)cc1)c1ccc(Cl)c(Cl)c1 (stereo not drawn)
3. CN(C(=O)CN1C(=O)COc2cc(Cl)c(Cl)cc21)[C@@H](CN1CCOCC1)c1ccc(-c2ccccc2)cc1

1. 2.5
2. 1.2
3. 7.7

Look at each compound and report its Ki.
1. CN(C(=O)CN1C(=O)COc2cc(Cl)c(Cl)cc21)[C@H](CN1CCOCC1)c1ccc(-c2ccccc2)cc1
2. CNC(=O)c1cccc(-c2ccc(C(CN3CCOCC3)N(C)C(=O)Cn3c(=O)cnc4cc(Cl)c(Cl)cc43)cc2)c1 (stereo not drawn)
3. CNC(=O)c1cccc(-c2ccc(C(CN3CCOCC3)N(C)C(=O)Cn3c(=O)cnc4cc(C)c(C)cc43)cc2)c1 (stereo not drawn)
4. CN(C(=O)CN(CC#N)c1ccc(Cl)c(Cl)c1)C(CN1CCCC1)c1ccc(-c2cccc(C(N)=O)c2)cc1 (stereo not drawn)
5. COc1cccc(-c2ccc(C(CN3CCOCC3)N(C)C(=O)CN3C(=O)COc4cc(Cl)c(Cl)cc43)cc2)c1 (stereo not drawn)

1: 9.4; 2: 30; 3: 30; 4: 22; 5: 22

Look at each compound and report its Ki.
1. CC(=O)Nc1ccc(-c2ccc(C(CN3CCOCC3)N(C)C(=O)CN3C(=O)COc4cc(C)c(C)cc43)cc2)cc1 (stereo not drawn)
2. CN(C(=O)CN1C(=O)COc2cc(Cl)c(Cl)cc21)C(CN1CCOCC1)c1ccc(-c2ccccc2)cc1 (racemic)
3. COCCN(CC(=O)N(C)C(CN1CCCC1)c1ccc(-c2ccc(C(N)=O)cc2)cc1)c1ccc(Cl)c(Cl)c1 (stereo not drawn)

1: 30; 2: 11.1; 3: 17
